TGT: rat M4 mAChR (Rattus norvegicus, UniProt P08485)
Sequence (P08485 whole entry): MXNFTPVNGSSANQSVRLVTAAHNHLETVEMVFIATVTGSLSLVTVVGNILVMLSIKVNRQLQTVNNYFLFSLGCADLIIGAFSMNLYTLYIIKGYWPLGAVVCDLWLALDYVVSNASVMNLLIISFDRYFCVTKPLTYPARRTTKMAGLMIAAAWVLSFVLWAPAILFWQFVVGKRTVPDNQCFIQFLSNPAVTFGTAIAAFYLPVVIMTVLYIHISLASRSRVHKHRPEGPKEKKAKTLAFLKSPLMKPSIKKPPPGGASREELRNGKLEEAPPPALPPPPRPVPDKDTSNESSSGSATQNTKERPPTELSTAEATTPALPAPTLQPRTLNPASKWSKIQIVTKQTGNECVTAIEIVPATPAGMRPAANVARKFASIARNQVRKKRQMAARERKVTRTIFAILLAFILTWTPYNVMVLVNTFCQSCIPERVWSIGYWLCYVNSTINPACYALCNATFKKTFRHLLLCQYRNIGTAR
Assay type: cell-based
CONDITION_DETAILS: read-out: M4 PAM activity EC50; potentiation of an EC20 concentration of ACh
REPORTED_ENDPOINT: EC50 (µM)
Answers are plain numbers, in µM.

Enquiry: Could you share which EC50 value was measured for Cc1cc(C)c2c(N)c(C(=O)NCc3ccc4c(c3)OCO4)sc2n1 ?
Return: 0.403
